Numbers sourced from ChEMBL document CHEMBL1121627.

This section presents compounds with their documented log10 ED50 values.
system: Rattus norvegicus; experiment: Antiallergic activity against reagin induced passive cutaneous anaphylaxis reaction in rats upon intravenous administration.; format: functional
Values reflect log10 of reported ED50 (mg/kg).

Reference set (2 entries):
Prompt: Give a short answer stating reported log10 ED50 for CCOC(=O)c1nc(O)c2cc3ccc(OC)cc3nc2n1 .
Response: -0.10

Prompt: Give a short answer stating reported log10 ED50 for CCOC(=O)c1nc2nc3cc(OC)c(OC)cc3cc2c(=O)n1C .
Response: -0.10

Further cases:
Prompt: Give a short answer stating reported log10 ED50 for CCOC(=O)c1nc(O)c2cc3cc([S+](C)[O-])ccc3nc2n1 (centres undefined) .
Response: -0.70

Prompt: Give a short answer stating reported log10 ED50 for CCOC(=O)c1nc(O)c2cc3cc(SC)ccc3nc2n1 .
Response: -1.00

Prompt: Give a short answer stating reported log10 ED50 for CCCCOC(=O)c1nc(O)c2cc3cc(OC)c(OC)cc3nc2n1 .
Response: -2.52

Prompt: Give a short answer stating reported log10 ED50 for NC(=O)c1nc(O)c2cc3ccccc3nc2n1 .
Response: 0.11

Prompt: Give a short answer stating reported log10 ED50 for CCCCOc1cc2nc3nc(C(=O)OCC)nc(O)c3cc2cc1OCC .
Response: -0.52

Prompt: Give a short answer stating reported log10 ED50 for CCOC(=O)c1nc(O)c2cc3cc(OCC)c(OCc4ccccc4)cc3nc2n1 .
Response: -0.05

* * *

This section presents molecules with their documented ED50 values.
test system: Rattus norvegicus; assay: The compound was evaluated for antiallergic activity against reagin induced passive cutaneous anaphylaxis reaction in rats upon peroral administration, at this dose the compound tested was found inactive, and is highly active at the same dose if ad ministered in solution of pH >/=10; format: functional; settings: po

Reference set (3 entries):
Prompt: Give a short answer stating reported ED50 for O=C(O)c1nc(O)c2cc3cc(O)ccc3nc2n1 .
Response: > 10 mg/kg

Prompt: Give a short answer stating reported ED50 for CCOC(=O)c1nc(O)c2cc3cc(OC)c(O)cc3nc2n1 .
Response: > 3 mg/kg

Prompt: Give a short answer stating reported ED50 for COc1cc2nc3nc(C(=O)O)nc(O)c3cc2cc1O .
Response: > 3 mg/kg

Alright, here's another molecule for you.
Prompt: Give a short answer stating reported ED50 for CCOC(=O)c1nc(O)c2cc3cc(O)c(OC)cc3nc2n1 .
Response: > 10 mg/kg

* * *

test system: Rattus norvegicus; assay: Antiallergic activity against reagin induced passive cutaneous anaphylaxis reaction in rats upon intravenous administration.; assay type: functional
This section presents molecules with their documented ED50 values.
The response must be a number in mg/kg with no trailing unit.

Prompt: Name the value of ED50 reported for CCOC(=O)c1nc(O)c2cc3cc(OC)cc(OC)c3nc2n1 when tested on Rattus norvegicus.
Response: 0.5

Further cases:
Prompt: Name the value of ED50 reported for CCOC(=O)c1nc(O)c2cc3cc4c(cc3nc2n1)OCO4 when tested on Rattus norvegicus.
Response: 0.5
